Biological target: T1, human CD47 on cells (SHP-77 tumor cells, human red blood cells, CCRF-CEM cells, human CD47 CHO-K1 stable cell … (human, UniProt Q08722 19-323))
T1 construct: whole, on cells; also called RBC
Assay: flow cytometry on SHP-77 cells
The binders listed here are annotated with their pEC50.
# log scale: pEC50 equals minus log10 of the concentration in mol/L

Worked cases, pEC50 given:
1. 108VH5.M22 / 108VL1.M5 (antibody, human IgG4 S228P, kappa, V domains shown, Full-length IgG4 (S228P), kappa; also called VH5.M22 VL1.M5) VH: EVQLVQSGAEVKKPGASVKVSCKASGYTFTHHWMHWVRQAPGQGLEWMGMIDASDIETRYAQKFQGRVTMTRDTSTSTVYMELSSLRSEDTAVYYCARLGRYYFDYWGQGTLVTVSS VL: EIVLTQSPATLSLSPGERATLSCRASQSVSSYLAWYQQKPGQAPRLLIYGASNRATGIPARFSGSGSGTDFTLTISSLEPEDFAVYYCGESYGHLYTFGGGTKVEIKR | 8.08
2. 108VH10.Mo / 108VL10.Me (antibody, V domains shown, 4D5-framework series; also called VH10.Mo VL10.Me) VH: EVQLVESGGGLVQPGGSLRLSCAASGFTFSHHWIHWVRQAPGKGLEWVAMIDASDSETRLSDSFKGRFTISADTSKNTAYLQMNSLRAEDTAVYYCSRLGRYYFDYWGQGTLVTVSS VL: DIQMTQSPSSLSASVGDRVTITCRASQSISSYLNWYQQKPGKAPKLLIYGASSRYSGVPSRFSGSRSGTDFTLTISSLQPEDFATYYCGESYGHLYTFGQGTKVEIK | 8.10

Continue with the next binder.
*Q* Which pEC50 is listed for 108VH5.M23 / 108VL1.M5 (antibody, human IgG4 S228P, kappa, V domains shown, Full-length IgG4 (S228P), kappa; also called VH5.M23 VL1.M5) VH: EVQLVQSGAEVKKPGASVKVSCKASGYTFTHHWMHWVRQAPGQGLEWMGMIDASDKETRYAQKFQGRVTMTRDTSTSTVYMELSSLRSEDTAVYYCARLGRYYFDYWGQGTLVTVSS VL: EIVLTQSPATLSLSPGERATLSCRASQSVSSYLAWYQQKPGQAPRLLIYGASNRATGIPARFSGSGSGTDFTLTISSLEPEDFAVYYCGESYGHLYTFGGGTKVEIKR ?
*A* 8.09
